- Test system: HSV-1 virus
- assayComment: Anti HSV-1 CPE inhibition assay in Vero cells
- runParameters: in vitro, CPE inhibition
measurementName: antiviral activity against HSV-1 (in words)

{"compound": "CC1=C2CC[C@@H](C)C[C@]2(OC(=O)c2ccc(Br)cc2)OC1=O [M33]", "experimentalSystem": "HSV-1 virus", "experimentalValue": "little effect"}
{"compound": "CC1=C2CC[C@@H](C)C[C@]2(OC(=O)c2cccc(Br)c2)OC1=O [M31]", "experimentalSystem": "HSV-1 virus", "experimentalValue": "little effect"}

* * *

- Test system: MDCK cells
- assayComment: Cytotoxicity against MDCK cells by CPE assay
- Assay type: cell-based
- Experimental: The cytotoxicity was evaluated by cytopathic effect (CPE) inhibition assay. Vero cells were seeded into 96-well plates. After cells had been incubated for 24 h at 37 °C in 5% CO2, they were exposed to drugs with two-fold serial dilutions. Untreated Vero cells were used as controls. All cultures were incubated again in 5% CO2 at 37 °C for 72 h. The cells were examined microscopically for the cytotoxicity effects. Then TC50 were calculated by the Reed-Muench method. […]
Quick reference for TC50 (Antiviral activity against H3N2 virus section) among some molecules

{"smilesCode": "CC1=C2CC[C@@H](C)C[C@]2(OC(=O)c2ccc(Br)cc2)OC1=O", "experimentalValue": "71.0 µM"}
{"smilesCode": "CC1=C2CC[C@@H](C)C[C@]2(OC(=O)c2cccc(Cl)c2)OC1=O", "experimentalValue": "80.8 µM"}
{"smilesCode": "CC1=C2CC[C@@H](C)C[C@]2(OC(=O)c2ccc(Cl)cc2)OC1=O", "experimentalValue": "47.1 µM"}
{"smilesCode": "CCO[C@@]12C[C@H](C)CCC1=C(C)C(=O)O2", "experimentalValue": "139.5 µM"}

We next turn to a different molecule, shown below.
Asked: Please provide the recorded TC50 (Antiviral activity against H3N2 virus section) for CC1=C2CC[C@@H](C)C[C@@]2(OC(=O)c2cccs2)OC1=O , tested on MDCK cells.
Given back: 177.4 µM
